Target: hCAI isoenzyme purified from human erythrocytes (Homo sapiens, UniProt P00915)
Construct: hCAI isoenzyme purified from human erythrocytes; from tissue; host or cells: human erythrocytes
Sequence (P00915 whole entry): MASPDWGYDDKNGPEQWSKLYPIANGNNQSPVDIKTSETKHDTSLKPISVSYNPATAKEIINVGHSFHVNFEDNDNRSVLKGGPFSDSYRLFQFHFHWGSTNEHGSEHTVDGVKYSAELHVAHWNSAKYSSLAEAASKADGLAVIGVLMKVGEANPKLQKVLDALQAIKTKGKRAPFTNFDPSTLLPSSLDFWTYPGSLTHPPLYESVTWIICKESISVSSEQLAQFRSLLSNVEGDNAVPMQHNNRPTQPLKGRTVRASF
Experiment: Inhibition of esterase activity (p-nitrophenyl acetate) of purified hCAI; IC50, Ki, inhibition type
Format: biochemical
Details: esterase activity method, saturated substrate concentration; read-out: IC50 hCAI
value-type: IC50 (µM)
One number for each entry, in µM.

Check out these entries, answers already filled in.
compound: O=C([O-])C1=NN(c2ccc(S(=O)(=O)[O-])cc2)C(=O)C1N=Nc1ccc(S(=O)(=O)[O-])cc1.[Na+].[Na+].[Na+] (stereo not drawn)
test-system: hCAI isoenzyme purified from human erythrocytes (Homo sapiens, UniProt P00915)
reading-unit: µM
IC50: 652
//
compound: Cc1c(C(=O)O)c(O)cc2c1C(=O)c1c(O)c([C@@H]3O[C@H](CO)[C@@H](O)[C@H](O)[C@H]3O)c(O)c(O)c1C2=O
test-system: hCAI isoenzyme purified from human erythrocytes (Homo sapiens, UniProt P00915)
reading-unit: µM
IC50: 684
//
compound: O=C1O[C@H]([C@@H](O)CO)C(O)=C1O
test-system: hCAI isoenzyme purified from human erythrocytes (Homo sapiens, UniProt P00915)
reading-unit: µM
IC50: 1830
//
compound: COc1cc(S(=O)(=O)[O-])c(C)cc1N=Nc1c(O)ccc2cc(S(=O)(=O)[O-])ccc12.[Na+].[Na+]
test-system: hCAI isoenzyme purified from human erythrocytes (Homo sapiens, UniProt P00915)
reading-unit: µM
IC50: 782
//
compound: O=C1/C(=C2\Nc3ccc(S(=O)(=O)[O-])cc3C2=O)Nc2ccc(S(=O)(=O)[O-])cc21.[Na+].[Na+]
test-system: hCAI isoenzyme purified from human erythrocytes (Homo sapiens, UniProt P00915)
reading-unit: µM
IC50: 1020
//
compound: C/C=C/C=C/C(=O)O
test-system: hCAI isoenzyme purified from human erythrocytes (Homo sapiens, UniProt P00915)
reading-unit: µM
IC50: 4570

Hi there! I need IC50 for each item below, if you can.
1. CC(=O)Nc1ccc(S(=O)(=O)[O-])c2cc(S(=O)(=O)[O-])c(N=Nc3ccc(N=Nc4ccc(S(=O)(=O)[O-])cc4)c4ccc(S(=O)(=O)[O-])cc34)c(O)c12.[Na+].[Na+].[Na+].[Na+]
2. O=C1NS(=O)(=O)c2ccccc21
3. O=S(=O)([O-])c1cc(S(=O)(=O)[O-])c2c(N=Nc3ccc(S(=O)(=O)[O-])c4ccccc34)c(O)ccc2c1.[Na+].[Na+].[Na+]

[A]
91.1
2050
678

====

Molecular target: bovine carbonic anhydrase (bCA) (Bos taurus)
Assay: Inhibition of esterase activity (p-nitrophenyl acetate) of purified bCA
Settings: esterase activity method, saturated substrate concentration
Task for the reader: assign each of the following compounds its reported IC50.
The reply should read as a number followed by its unit.

compound: C/C=C/C=C/C(=O)O [Sorbic Acid, Sorbic acid]
IC50: 1800 µM
--
compound: CC(=O)Nc1ccc(S(=O)(=O)[O-])c2cc(S(=O)(=O)[O-])c(N=Nc3ccc(N=Nc4ccc(S(=O)(=O)[O-])cc4)c4ccc(S(=O)(=O)[O-])cc34)c(O)c12.[Na+].[Na+].[Na+].[Na+] [Brilliant Black BN]
IC50: 153 µM

Next, consider the following compound.
[Q] What value of IC50 has been reported for the following compound? Cc1c(C(=O)O)c(O)cc2c1C(=O)c1c(O)c([C@@H]3O[C@H](CO)[C@@H](O)[C@H](O)[C@H]3O)c(O)c(O)c1C2=O [Carminic Acid, Carminic acid]
[A] 587 µM

====

Target: bovine carbonic anhydrase (bCA) (Bos taurus, UniProt P00921)
Construct: from tissue; host or cells: bovine blood hemolysate (erythrocytes are inferred)
Sequence (P00921 whole entry): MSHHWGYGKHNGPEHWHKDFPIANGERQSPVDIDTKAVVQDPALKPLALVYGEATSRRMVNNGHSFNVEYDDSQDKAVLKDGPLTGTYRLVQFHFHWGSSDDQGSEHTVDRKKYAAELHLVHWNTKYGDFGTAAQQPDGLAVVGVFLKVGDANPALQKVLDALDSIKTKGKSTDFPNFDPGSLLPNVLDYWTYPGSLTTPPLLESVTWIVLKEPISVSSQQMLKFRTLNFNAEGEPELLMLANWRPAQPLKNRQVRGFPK
Assay: Inhibition of esterase activity (p-nitrophenyl acetate) of purified bCA
Format: biochemical
Details: esterase activity method, saturated substrate concentration
value-type: log10(IC50) (log10 of the value in µM)
Scale: log10; quantity: IC50; unit before log: µM

Previously resolved entries follow.
compound: CC1=CC(=O)NS(=O)(=O)O1 [Acesulfame K]
log10(IC50): 3.37

compound: O=S(=O)([O-])c1ccc2c(N=Nc3ccc(S(=O)(=O)[O-])c4ccccc34)c(O)c(S(=O)(=O)[O-])cc2c1.[Na+].[Na+].[Na+] [Amaranth]
log10(IC50): 2.47

compound: COc1cc(S(=O)(=O)[O-])c(C)cc1N=Nc1c(O)ccc2cc(S(=O)(=O)[O-])ccc12.[Na+].[Na+] [Allura Red AC]
log10(IC50): 2.88

compound: O=C1/C(=C2\Nc3ccc(S(=O)(=O)[O-])cc3C2=O)Nc2ccc(S(=O)(=O)[O-])cc21.[Na+].[Na+] [Indigo Carmine]
log10(IC50): 2.15

compound: CCN(CC)c1ccc(C(=C2C=CC(=[N+](CC)CC)C=C2)c2cc(O)c(S(=O)(=O)[O-])cc2S(=O)(=O)[O-])cc1.CCN(CC)c1ccc(C(=C2C=CC(=[N+](CC)CC)C=C2)c2cc(O)c(S(=O)(=O)[O-])cc2S(=O)(=O)[O-])cc1.[Ca+2] [Patent Blue V]
log10(IC50): 2.43

compound: Cc1cc(C(C)(C)C)c(O)c(C(C)(C)C)c1 [Butylated Hydroxytoluene (BHT), Butylated hydroxytoluene (BHT)]
log10(IC50): 2.71

compound: O=C(O)CC(O)(CC(=O)O)C(=O)O [Citric Acid]
log10(IC50): 2.79

compound: O=S(=O)([O-])c1ccc(N=Nc2c(O)ccc3cc(S(=O)(=O)[O-])ccc23)cc1.[Na+].[Na+] [Sunset Yellow FCF]
log10(IC50): 2.83

Provide log10(IC50) values for the following items, in order.
1. O=C(O)c1ccccc1 [Benzoic Acid, Benzoic acid]
2. O=S(=O)([O-])c1cc(S(=O)(=O)[O-])c2c(N=Nc3ccc(S(=O)(=O)[O-])c4ccccc34)c(O)ccc2c1.[Na+].[Na+].[Na+] [Ponceau 4R, Ponceau 4 R]
3. O=C1O[C@H]([C@@H](O)CO)C(O)=C1O [Ascorbic Acid, Ascorbic acid]

[A]
3.27
2.38
3.00

// each listed compound needs a value for log10(IC50)
1. CCN(Cc1cccc(S(=O)(=O)[O-])c1)c1ccc(C(=C2C=CC(=[N+](CC)Cc3cccc(S(=O)(=O)[O-])c3)C=C2)c2ccccc2S(=O)(=O)[O-])cc1.[Na+].[Na+] [Brilliant Blue FCF]
2. O=C([O-])C1=NN(c2ccc(S(=O)(=O)[O-])cc2)C(=O)C1N=Nc1ccc(S(=O)(=O)[O-])cc1.[Na+].[Na+].[Na+] (stereo not shown) [Tartrazine]

[A]
2.13
2.82

====

Molecular target: hCAI isoenzyme purified from human erythrocytes (Homo sapiens, UniProt P00915)
Construct: hCAI isoenzyme purified from human erythrocytes; from tissue; host or cells: human erythrocytes
Assay: Inhibition of esterase activity (p-nitrophenyl acetate) of purified hCAI; IC50, Ki, inhibition type
Type: biochemical
Settings: esterase activity method, saturated substrate concentration; read-out: IC50 hCAI
pIC50: −log10 of the molar value. Where a SMILES comes first, the peptide text is derived from it.
Record criterion met whenever pIC50 is at 3 or higher; record criterion not met when lower.

Consider the following illustrative entries.
compound: CCN(CC)c1ccc(C(=C2C=CC(=[N+](CC)CC)C=C2)c2cc(O)c(S(=O)(=O)[O-])cc2S(=O)(=O)[O-])cc1.CCN(CC)c1ccc(C(=C2C=CC(=[N+](CC)CC)C=C2)c2cc(O)c(S(=O)(=O)[O-])cc2S(=O)(=O)[O-])cc1.[Ca+2]
test-system: hCAI isoenzyme purified from human erythrocytes (Homo sapiens, UniProt P00915)
label-class: criterion met
//
compound: O=S(=O)([O-])c1ccc(N=Nc2c(O)ccc3cc(S(=O)(=O)[O-])ccc23)cc1.[Na+].[Na+]
test-system: hCAI isoenzyme purified from human erythrocytes (Homo sapiens, UniProt P00915)
label-class: criterion met
//
compound: O=C(O)c1ccccc1
test-system: hCAI isoenzyme purified from human erythrocytes (Homo sapiens, UniProt P00915)
label-class: criterion not met
//
compound: O=C(O)CC(O)(CC(=O)O)C(=O)O
test-system: hCAI isoenzyme purified from human erythrocytes (Homo sapiens, UniProt P00915)
label-class: criterion not met
//
compound: Cc1cc(C(C)(C)C)c(O)c(C(C)(C)C)c1 [Butylated Hydroxytoluene (BHT), Butylated hydroxytoluene (BHT)]
test-system: hCAI isoenzyme purified from human erythrocytes (Homo sapiens, UniProt P00915)
label-class: criterion met

Lab note: next compound to report on.
[Q] Test whether the compound COC(=O)[C@H](Cc1ccccc1)NC(=O)[C@@H](N)CC(=O)O [Aspartame] (HELM PEPTIDE1{D.F.[CO[*:1]]}$$$$V2.0) records pIC50 of 3 or higher.
[A] criterion not met
